MEASUREMENT_DESCRIPTION: Toxicity against Chlamydomonas reinhardtii D66 assessed as loss of photosynthetic activity after 1 hr
COND: Chlamydomonas reinhardtii D66 cells, read-out: LD50
// assign satisfied if LC50 at 1 h falls strictly below 200 µM, else not satisfied (ties count as not satisfied)

Field: example entries. Status: answers known.
>>> class_assignment("CCOP(=O)(OCC)C(C)(CCC[P+](c1ccccc1)(c1ccccc1)c1ccccc1)NCC(C)C.[Br-] (racemic)")
"not satisfied"
>>> class_assignment("CCOP(=O)(OCC)C1(C)CCCN1 (stereo not drawn)")
"not satisfied"
>>> class_assignment("CCOP(=O)(OCC)C(NCCCCCC[P+](c1ccccc1)(c1ccccc1)c1ccccc1)C(C)C.[Br-] (racemic)")
"satisfied"

Switching to the query record.
(Q) Consider CCOP(=O)(OCC)C(NCCCCCCCC[P+](c1ccccc1)(c1ccccc1)c1ccccc1)C(C)C.[Br-] (racemic) . Does its LC50 at 1 h lie strictly below 200 µM?
(A) satisfied
